# SYSTEM_UNDER_TEST: T1, soluble monomeric FcγRIIIA (extracellular region joined to linker-AVITAG), allele not stated (human, UniProt P08637 17-208)
# T1 construct: extracellular domain; also called FcRIIIA; CD16A; not shown: linker-AVITAG
# METHOD_DESCRIPTION: ELISA
Everything with Binding to FcγRIIIA (ELISA) lower than 3 fold increase is n; everything else, including exactly 3 fold increase, is y.

Use the examples below as a reference point.
IgG1 Fc mutant A378V, N390I, V422I (antibody) heavy: ASTKGPSVFPLAPSSKSTSGGTAALGCLVKDYFPEPVTVSWNSGALTSGVHTFPAVLQSSGLYSLSSVVTVPSSSLGTQTYICNVNHKPSNTKVDKKVEPKSCDKTHTCPPCPAPELLGGPSVFLFPPKPKDTLMISRTPEVTCVVVDVSHEDPEVKFNWYVDGVEVHNAKTKPREEQYNSTYRVVSVLTVLHQDWLNGKEYKCKVSNKALPAPIEKTISKAKGQPREPQVYTLPPSRDELTKNQVSLTCLVKGFYPSDIVVEWESNGQPENIYKTTPPVLDSDGSFFLYSKLTVDKSRWQQGNIFSCSVMHEALHNHYTQKSLSLSPGK	n
IgG1 Fc mutant P247L, W313R, E388G (antibody) heavy: ASTKGPSVFPLAPSSKSTSGGTAALGCLVKDYFPEPVTVSWNSGALTSGVHTFPAVLQSSGLYSLSSVVTVPSSSLGTQTYICNVNHKPSNTKVDKKVEPKSCDKTHTCPPCPAPELLGGPSVFLFPPKLKDTLMISRTPEVTCVVVDVSHEDPEVKFNWYVDGVEVHNAKTKPREEQYNSTYRVVSVLTVLHQDRLNGKEYKCKVSNKALPAPIEKTISKAKGQPREPQVYTLPPSRDELTKNQVSLTCLVKGFYPSDIAVEWESNGQPGNNYKTTPPVLDSDGSFFLYSKLTVDKSRWQQGNVFSCSVMHEALHNHYTQKSLSLSPGK	n
IgG1 Fc mutant D221E, D270E, V308A, Q311H, P396L, G402D (antibody) heavy: ASTKGPSVFPLAPSSKSTSGGTAALGCLVKDYFPEPVTVSWNSGALTSGVHTFPAVLQSSGLYSLSSVVTVPSSSLGTQTYICNVNHKPSNTKVDKKVEPKSCEKTHTCPPCPAPELLGGPSVFLFPPKPKDTLMISRTPEVTCVVVDVSHEEPEVKFNWYVDGVEVHNAKTKPREEQYNSTYRVVSVLTALHHDWLNGKEYKCKVSNKALPAPIEKTISKAKGQPREPQVYTLPPSRDELTKNQVSLTCLVKGFYPSDIAVEWESNGQPENNYKTTPLVLDSDDSFFLYSKLTVDKSRWQQGNVFSCSVMHEALHNHYTQKSLSLSPGK	y

In: Does IgG1 Fc mutant K326I, S408N, P396L (antibody) heavy: ASTKGPSVFPLAPSSKSTSGGTAALGCLVKDYFPEPVTVSWNSGALTSGVHTFPAVLQSSGLYSLSSVVTVPSSSLGTQTYICNVNHKPSNTKVDKKVEPKSCDKTHTCPPCPAPELLGGPSVFLFPPKPKDTLMISRTPEVTCVVVDVSHEDPEVKFNWYVDGVEVHNAKTKPREEQYNSTYRVVSVLTVLHQDWLNGKEYKCKVSNIALPAPIEKTISKAKGQPREPQVYTLPPSRDELTKNQVSLTCLVKGFYPSDIAVEWESNGQPENNYKTTPLVLDSDGSFFLYNKLTVDKSRWQQGNVFSCSVMHEALHNHYTQKSLSLSPGK have a reported Binding to FcγRIIIA (ELISA) of at least 3 fold increase?
Out: y

In: Does IgG1 Fc mutant K334E, T359N, T366S, Q386R (antibody) heavy: ASTKGPSVFPLAPSSKSTSGGTAALGCLVKDYFPEPVTVSWNSGALTSGVHTFPAVLQSSGLYSLSSVVTVPSSSLGTQTYICNVNHKPSNTKVDKKVEPKSCDKTHTCPPCPAPELLGGPSVFLFPPKPKDTLMISRTPEVTCVVVDVSHEDPEVKFNWYVDGVEVHNAKTKPREEQYNSTYRVVSVLTVLHQDWLNGKEYKCKVSNKALPAPIEETISKAKGQPREPQVYTLPPSRDELNKNQVSLSCLVKGFYPSDIAVEWESNGRPENNYKTTPPVLDSDGSFFLYSKLTVDKSRWQQGNVFSCSVMHEALHNHYTQKSLSLSPGK have a reported Binding to FcγRIIIA (ELISA) of at least 3 fold increase?
Out: n

In: Does IgG1 Fc mutant V273I, K326E, L328I, P396L (antibody) heavy: ASTKGPSVFPLAPSSKSTSGGTAALGCLVKDYFPEPVTVSWNSGALTSGVHTFPAVLQSSGLYSLSSVVTVPSSSLGTQTYICNVNHKPSNTKVDKKVEPKSCDKTHTCPPCPAPELLGGPSVFLFPPKPKDTLMISRTPEVTCVVVDVSHEDPEIKFNWYVDGVEVHNAKTKPREEQYNSTYRVVSVLTVLHQDWLNGKEYKCKVSNEAIPAPIEKTISKAKGQPREPQVYTLPPSRDELTKNQVSLTCLVKGFYPSDIAVEWESNGQPENNYKTTPLVLDSDGSFFLYSKLTVDKSRWQQGNVFSCSVMHEALHNHYTQKSLSLSPGK have a reported Binding to FcγRIIIA (ELISA) of at least 3 fold increase?
Out: n

In: Does IgG1 Fc mutant K290T, N390I, P396L (antibody) heavy: ASTKGPSVFPLAPSSKSTSGGTAALGCLVKDYFPEPVTVSWNSGALTSGVHTFPAVLQSSGLYSLSSVVTVPSSSLGTQTYICNVNHKPSNTKVDKKVEPKSCDKTHTCPPCPAPELLGGPSVFLFPPKPKDTLMISRTPEVTCVVVDVSHEDPEVKFNWYVDGVEVHNAKTTPREEQYNSTYRVVSVLTVLHQDWLNGKEYKCKVSNKALPAPIEKTISKAKGQPREPQVYTLPPSRDELTKNQVSLTCLVKGFYPSDIAVEWESNGQPENIYKTTPLVLDSDGSFFLYSKLTVDKSRWQQGNVFSCSVMHEALHNHYTQKSLSLSPGK have a reported Binding to FcγRIIIA (ELISA) of at least 3 fold increase?
Out: n
